Hi! I'm sharing some pKi results obtained with Kappa-type opioid receptor (Cavia porcellus).
Sequence (P41144 whole entry): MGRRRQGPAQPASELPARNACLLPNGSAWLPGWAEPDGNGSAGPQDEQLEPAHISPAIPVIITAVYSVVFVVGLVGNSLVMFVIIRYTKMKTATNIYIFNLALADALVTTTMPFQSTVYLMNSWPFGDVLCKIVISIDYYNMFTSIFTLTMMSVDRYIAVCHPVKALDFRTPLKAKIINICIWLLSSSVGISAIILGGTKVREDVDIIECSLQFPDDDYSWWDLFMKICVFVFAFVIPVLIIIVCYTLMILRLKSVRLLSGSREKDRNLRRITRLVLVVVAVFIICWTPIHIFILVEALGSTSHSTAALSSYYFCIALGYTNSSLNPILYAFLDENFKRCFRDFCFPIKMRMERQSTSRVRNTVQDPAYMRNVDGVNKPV
Scale explanation: pKi corresponds to minus log10 of a concentration expressed in moles per litre.

Past entries and their recorded results:
>>> df
                                   compound  numeric_readout
0  COc1cccc2c1C(c1ccccc1)=NCC(CCNC(=O)c1cccs1)N2C (stereo not given)             6.94
1  O=C(NCCC1CN=C(c2ccccc2)c2ccccc2N1)c1cccs1 (stereo not given)             8.76
2  Oc1ccc2c3c1O[C@H]1c4[nH]c5ccccc5c4C[C@@]4(O)[C@@H](C2)N(CC2CC2)CC[C@]314             7.99
3  CN1c2ccccc2C(c2ccccc2F)=NCC1CCNC(=O)c1ccsc1 (stereo not given)             9.11

## Input So what pKi did CN(CCC1CN=C(c2ccccc2)c2ccccc2N1C)C(=O)c1cccs1 (stereo not given) get with Kappa-type opioid receptor (Cavia porcellus)?
## Output 7.59

###

- target.of.assay: Delta-type opioid receptor (Homo sapiens, UniProt P41143)
- Sequence (P41143 whole entry): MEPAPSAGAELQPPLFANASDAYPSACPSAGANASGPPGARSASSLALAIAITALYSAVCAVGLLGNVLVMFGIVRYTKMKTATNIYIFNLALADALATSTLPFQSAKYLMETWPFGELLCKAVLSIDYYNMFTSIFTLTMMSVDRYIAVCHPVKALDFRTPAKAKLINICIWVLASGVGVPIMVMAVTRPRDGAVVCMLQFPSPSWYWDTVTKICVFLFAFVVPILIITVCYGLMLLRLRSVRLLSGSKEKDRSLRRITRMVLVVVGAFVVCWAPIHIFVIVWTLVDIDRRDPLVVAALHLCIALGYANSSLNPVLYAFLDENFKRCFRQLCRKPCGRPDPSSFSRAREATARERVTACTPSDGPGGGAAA
outcome.measure: Ki
Answers without a unit are incomplete; give the number and then its unit.

                                   compound   result
0  CN1c2ccccc2C(c2ccccc2F)=NC[C@@H]1CCNC(=O)c1ccsc1  27.8 nM
1  CN1c2ccccc2C(c2ccccc2F)=NC[C@H]1CCNC(=O)c1ccsc1   438 nM

Here is another compound to look at.
## Input Entry under review: CN1c2ccccc2C(c2ccccc2F)=NCC1CCNC(=O)c1ccsc1 (stereo not drawn) . Reported Ki?
## Output 69 nM

###

- target.of.assay: Kappa-type opioid receptor (Homo sapiens)
- measurement.notes: Binding affinity against opioid receptor kappa 1 from human cloned receptor
outcome.measure: pKi
Scale explanation: pKi corresponds to minus log10 of a concentration expressed in moles per litre.

>>> df
                                   molecule  numeric_readout
0  CN1c2ccc(Cl)cc2C(c2ccccc2)=NCC1CCNC(=O)c1ccc(F)cc1 (configuration not stated)             9.26
1  O=C(NCCC1CN=C(c2ccccc2)c2ccccc2N1)c1ccccc1F (configuration not stated)             9.28
2  CN1c2ccc(Cl)cc2C(c2ccccc2)=NCC1CCNC(=O)c1ccccc1F (configuration not stated)             8.82

## Input So what pKi did CN1c2ccc(Cl)cc2C(c2ccccc2)=NC[C@H]1CCNC(=O)c1cccs1 get with Kappa-type opioid receptor (Homo sapiens)?
## Output 9.10

## Input So what pKi did CN1c2ccccc2C(c2ccccc2)=NCC1CCNC(=O)c1ccc(F)cc1 (configuration not stated) get with Kappa-type opioid receptor (Homo sapiens)?
## Output 9.52

## Input So what pKi did O=C(NCCC1CN=C(c2ccccc2)c2ccccc2N1)c1ccccc1 (configuration not stated) get with Kappa-type opioid receptor (Homo sapiens)?
## Output 9.60

###

# pKi annotations
- target.of.assay: Kappa-type opioid receptor (Homo sapiens)
- measurement.notes: Binding constant towards human Opioid receptor kappa 1 was reported
Scale explanation: pKi corresponds to minus log10 of a concentration expressed in moles per litre.

In [3]: df
Out[3]:
                                   compound  outcome_measure  numeric_readout
0  O=C(NCCC1CN=C(c2ccccc2)c2ccccc2N1)c1cccs1 (stereo not given)              pKi             9.35

Here is another compound to look at.
## Input Entry under review: CN1c2ccc(Cl)cc2C(c2ccccc2)=NC[C@@H]1CCNC(=O)c1cccs1 . Reported pKi?
## Output 9.16

###

Hi! I'm sharing some Ki results obtained with Mu-type opioid receptor (Homo sapiens, UniProt P35372).
Sequence (P35372 whole entry): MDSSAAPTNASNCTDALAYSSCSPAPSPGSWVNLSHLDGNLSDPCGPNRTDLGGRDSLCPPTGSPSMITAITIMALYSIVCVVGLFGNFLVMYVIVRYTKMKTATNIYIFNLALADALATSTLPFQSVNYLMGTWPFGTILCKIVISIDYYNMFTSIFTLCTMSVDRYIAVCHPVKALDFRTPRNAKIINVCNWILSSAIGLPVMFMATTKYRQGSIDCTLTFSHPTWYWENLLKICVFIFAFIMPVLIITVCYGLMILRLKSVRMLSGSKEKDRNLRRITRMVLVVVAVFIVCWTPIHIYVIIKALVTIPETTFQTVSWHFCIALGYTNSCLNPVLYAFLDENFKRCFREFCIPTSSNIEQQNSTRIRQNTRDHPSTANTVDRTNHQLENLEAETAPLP
Write the value in nM as a bare number.

Past entries and their recorded results:
>>> df
                                   molecule  outcome_measure  numeric_readout
0  CN1c2ccccc2C(c2ccccc2)=NCC1CCNC(=O)c1cccs1 (centres undefined)               Ki              9.4
1  CN1c2ccc(Cl)cc2C(c2ccccc2)=NCC1CCNC(=O)c1cccs1 (centres undefined)               Ki             26.3
2  CN1c2ccccc2C(c2ccccc2F)=NC[C@@H]1CCNC(=O)c1ccsc1               Ki              1.5

## Input So what Ki did CN1c2ccc(Cl)cc2C(c2ccccc2)=NC[C@@H]1CCNC(=O)c1cccs1 get with Mu-type opioid receptor (Homo sapiens, UniProt P35372)?
## Output 27.4

## Input So what Ki did CN1c2ccccc2C(c2ccccc2F)=NC[C@H]1CCNC(=O)c1ccsc1 get with Mu-type opioid receptor (Homo sapiens, UniProt P35372)?
## Output 24.8

## Input So what Ki did CN1c2ccc(Cl)cc2C(c2ccccc2)=NC[C@H]1CCNC(=O)c1cccs1 get with Mu-type opioid receptor (Homo sapiens, UniProt P35372)?
## Output 33.2

## Input So what Ki did CN1c2ccccc2C(c2ccccc2)=NC[C@H]1CCNC(=O)c1cccs1 get with Mu-type opioid receptor (Homo sapiens, UniProt P35372)?
## Output 54.8

## Input So what Ki did CN1c2ccccc2C(c2ccccc2)=NC[C@@H]1CCNC(=O)c1cccs1 get with Mu-type opioid receptor (Homo sapiens, UniProt P35372)?
## Output 9.2

## Input So what Ki did CN1c2ccccc2C(c2ccccc2F)=NCC1CCNC(=O)c1ccsc1 (centres undefined) get with Mu-type opioid receptor (Homo sapiens, UniProt P35372)?
## Output 3

###

- target.of.assay: Kappa-type opioid receptor (Homo sapiens, UniProt P41145)
- Sequence (P41145 whole entry): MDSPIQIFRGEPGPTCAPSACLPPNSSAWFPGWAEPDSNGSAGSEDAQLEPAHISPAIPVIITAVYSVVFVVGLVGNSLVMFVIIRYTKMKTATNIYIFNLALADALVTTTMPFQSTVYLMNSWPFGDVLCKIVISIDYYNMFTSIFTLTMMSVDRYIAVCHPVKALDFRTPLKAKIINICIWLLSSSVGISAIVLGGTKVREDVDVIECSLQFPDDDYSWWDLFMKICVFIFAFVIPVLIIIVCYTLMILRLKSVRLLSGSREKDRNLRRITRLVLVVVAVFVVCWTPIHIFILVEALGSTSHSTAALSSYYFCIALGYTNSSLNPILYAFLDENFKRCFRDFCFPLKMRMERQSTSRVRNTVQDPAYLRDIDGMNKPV
- measurement.notes: Binding constant towards human Opioid receptor kappa 1 was reported
# log10(Ki) annotations
Recall that a logarithmic scale is used here: each number is log10 of Ki in nM.

Past entries and their recorded results:
In [3]: df
Out[3]:
                                   molecule  outcome_measure  numeric_readout
0  CN1c2ccccc2C(c2ccccc2)=NCC1CCNC(=O)c1ccc([N+](=O)[O-])cc1 (stereo unspecified)        log10(Ki)            -0.32
1  CN1c2ccccc2C(c2ccccc2)=NCC1CCNC(=O)c1ccc(F)cc1 (stereo unspecified)        log10(Ki)            -0.52
2  CN(CCC1CN=C(c2ccccc2)c2ccccc2N1C)C(=O)c1cccs1 (stereo unspecified)        log10(Ki)             0.64
3  O=C(NCCC1CN=C(c2ccccc2)c2ccccc2N1)c1ccc(F)cc1 (stereo unspecified)        log10(Ki)            -0.55
4  CN1c2ccc(Cl)cc2C(c2ccccc2)=NCC1CCNC(=O)c1cc2ccccc2[nH]1 (stereo unspecified)        log10(Ki)             1.13

Here is another molecule to look at.
## Input Entry under review: CN1c2ccc(Cl)cc2C(c2ccccc2)=NCC1CCNC(=O)c1ccccc1F (stereo unspecified) . Reported log10(Ki)?
## Output 0.19

###

- target.of.assay: Kappa-type opioid receptor (Homo sapiens, UniProt P41145)
- measurement.notes: Binding affinity against opioid receptor kappa 1 from human cloned receptor
Each record is given YES if its reported Ki is strictly below 0.5 nM. Records at or above 0.5 nM are given NO.

Would you please look over these solved cases?
                                   molecule  answer_label
0  CN1c2ccccc2C(c2ccccc2)=NCC1CCNC(=O)c1cccs1 (stereo unspecified)            NO
1  CN1c2ccccc2C(c2ccccc2)=NCC1CCNC(=O)c1ccccc1F (stereo unspecified)           YES
2  CN1c2ccccc2C(c2ccccc2F)=NC[C@@H]1CCNC(=O)c1ccsc1           YES
3  CN1c2ccccc2C(c2ccccc2F)=NCC1CCNC(=O)c1ccsc1 (stereo unspecified)           YES
4  CN1c2ccccc2C(c2ccccc2)=NCC1CCNC(=O)c1ccc([N+](=O)[O-])cc1 (stereo unspecified)           YES
5  O=C(NCCC1CN=C(c2ccccc2)c2ccccc2N1)c1ccc(F)cc1 (stereo unspecified)           YES
6  CN1c2ccc(Cl)cc2C(c2ccccc2)=NC[C@@H]1CCNC(=O)c1cccs1            NO
7  CN1c2ccc(Cl)cc2C(c2ccccc2)=NCC1CCNC(=O)c1ccc(Cl)cc1 (stereo unspecified)            NO

Now let's try a different one.
## Input Does the reported Ki of CN1c2ccccc2C(c2ccccc2F)=NC[C@H]1CCNC(=O)c1ccsc1 stay below 0.5 nM?
## Output NO

###

# pKi annotations
- target.of.assay: Kappa-type opioid receptor (Homo sapiens)
- measurement.notes: Binding constant towards human Opioid receptor kappa 1 was reported
Scale explanation: pKi corresponds to minus log10 of a concentration expressed in moles per litre.

Past entries and their recorded results:
>>> df
                                   compound  numeric_readout
0  CN1c2ccc(Cl)cc2C(c2ccccc2)=NCC1CCNC(=O)c1ccc(F)cc1 (stereo not drawn)             9.26
1  CN1c2ccccc2C(c2ccccc2F)=NC[C@@H]1CCNC(=O)c1ccsc1             9.77

Here is another compound to look at.
## Input Entry under review: CN1c2ccccc2C(c2ccccc2)=NC[C@@H]1CCNC(=O)c1cccs1 . Reported pKi?
## Output 9.37
